# targetOrSystem: OsSMF1 (Oryza sativa, UniProt Q6ZLB0 1-436)
# Sequence: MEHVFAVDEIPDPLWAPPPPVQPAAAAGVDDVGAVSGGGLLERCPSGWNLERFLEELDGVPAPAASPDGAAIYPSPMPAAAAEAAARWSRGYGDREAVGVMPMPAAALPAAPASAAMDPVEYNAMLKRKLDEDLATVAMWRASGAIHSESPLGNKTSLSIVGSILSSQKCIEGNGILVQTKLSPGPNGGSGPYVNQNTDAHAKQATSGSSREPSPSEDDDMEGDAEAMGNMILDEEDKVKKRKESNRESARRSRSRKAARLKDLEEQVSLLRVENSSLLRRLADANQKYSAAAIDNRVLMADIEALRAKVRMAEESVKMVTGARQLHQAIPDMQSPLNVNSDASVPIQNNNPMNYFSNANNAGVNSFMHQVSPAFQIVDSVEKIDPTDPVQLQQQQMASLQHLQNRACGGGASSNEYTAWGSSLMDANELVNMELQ
# assayName: protein-binding microarray (RPBM); PBS, 2% BSA, 51.3 ng/ul salmon testes DNA, 50 uM zinc acetate, 200 nM TF, 25 C, 1 h; high values mean tight binding
# testParameters: protein: recombinant; tags: N-terminal polyhistidine and DsRed monomer fusion (pET32a); chain copies: 2; label: CyDye5-dUTP incorporated in the synthesized complementary strand; 3' TTTTT single-stranded linker to array surface; dsDNA, one strand shown
In all, about 39,000 sequences were measured (“fluorescence intensity (a.u.)”: median about 4,300, highest 2% from about 39,000 on). The full list was thinned out, with the highest values kept by preference.
Give binding signal for every item shown.

sequence CCTCCTCAACGCCGCCACCTCATCCGTCCATACAGCGCCGCGGAGTCACCTAGTGCAG , binding signal observed: 7110 fluorescence intensity (a.u.)

sequence GCGTGGAGTGGAGAGTGGAGAGGCATGGGAGGCATGGCAGCGGAGTCACCTAGTGCAG , binding signal observed: 42900 fluorescence intensity (a.u.)

sequence CAGGCCAGAACAACTGCTCGGCCCGATAGGAGGGCCTACTCGGAGTCACCTAGTGCAG , binding signal observed: 55800 fluorescence intensity (a.u.)

sequence AGCGAGAGAAGATGCTGACGTGGCATCATGACATGTGGGGCGGAGTCACCTAGTGCAG , binding signal observed: 19300 fluorescence intensity (a.u.)

sequence CCCAAGGAGGATGAGGTGGAGGTGGGAGTGCGCATTGAGGCGGAGTCACCTAGTGCAG , binding signal observed: 4880 fluorescence intensity (a.u.)

sequence GTGCCTGCTCGATCGAGTCGTGGCGGCGGCGGAGTCAACTCGGAGTCACCTAGTGCAG , binding signal observed: 3370 fluorescence intensity (a.u.)

sequence AGAGGCATGGGAGTCATGTTCAGGGTGATGGGAGATGGAGCGGAGTCACCTAGTGCAG , binding signal observed: 3260 fluorescence intensity (a.u.)

sequence AAACACGCGGCATGGCGTGCCGCGATGCAGTCGGAGATGGCGGAGTCACCTAGTGCAG , binding signal observed: 48600 fluorescence intensity (a.u.)

Next sequence, please.
sequence CGGGAGAGAGATCAGATGCGGCATGGCGTGGCCGTGGCGTCGGAGTCACCTAGTGCAG , binding signal observed: 3380 fluorescence intensity (a.u.)

====

# targetOrSystem: OsSMF1 (Oryza sativa, UniProt Q6ZLB0 1-436)
# Sequence: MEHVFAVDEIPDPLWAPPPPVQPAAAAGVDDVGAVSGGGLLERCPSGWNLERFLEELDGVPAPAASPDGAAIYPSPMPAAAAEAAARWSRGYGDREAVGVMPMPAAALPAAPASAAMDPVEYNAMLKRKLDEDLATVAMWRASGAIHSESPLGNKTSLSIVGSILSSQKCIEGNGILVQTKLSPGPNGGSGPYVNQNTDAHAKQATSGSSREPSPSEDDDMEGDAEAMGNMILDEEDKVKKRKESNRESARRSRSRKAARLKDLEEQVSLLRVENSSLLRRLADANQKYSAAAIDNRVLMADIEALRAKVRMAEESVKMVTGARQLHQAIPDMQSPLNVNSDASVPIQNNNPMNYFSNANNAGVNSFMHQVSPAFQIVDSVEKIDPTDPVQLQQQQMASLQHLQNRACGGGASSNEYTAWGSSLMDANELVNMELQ
# assayName: protein-binding microarray (RPBM); PBS, 2% BSA, 51.3 ng/ul salmon testes DNA, 50 uM zinc acetate, 200 nM TF, 25 C, 1 h; high values mean tight binding
# testParameters: protein: recombinant; tags: N-terminal polyhistidine and DsRed monomer fusion (pET32a); chain copies: 2; label: CyDye5-dUTP incorporated in the synthesized complementary strand; 3' TTTTT single-stranded linker to array surface; dsDNA, one strand shown
Whole data set: some 39,000 sequences, median “fluorescence intensity (a.u.)” near 4,300, cut for the highest 2% near 39,000. This excerpt belongs to a sample that is enriched for the highest values.
measuredParameter: binding signal

sequence TATCCAGGCGCACGACACTTGACAACTCTGTACTACGTAGCGGAGTCACCTAGTGCAG , binding signal observed: 38900 fluorescence intensity (a.u.)

sequence CATGTCGACATGTTCACAAGCGGTACCAAGAGTCAAGACACGGAGTCACCTAGTGCAG , binding signal observed: 45800 fluorescence intensity (a.u.)

sequence CCCAGGGAGGCCAAACTACAAAGGCGATGCTTTCTACACACGGAGTCACCTAGTGCAG , binding signal observed: 41500 fluorescence intensity (a.u.)

Look up binding signal for the entries below, preserving their order.
1. AACTACACACAAAGCCGAGCCAAAGTCTCTAGGTCAAAGTCGGAGTCACCTAGTGCAG
2. CTCCCCACTCACTGCCAGGTGGGCCCACCTTGTCGGATTACGGAGTCACCTAGTGCAG
3. TCCCTGCGAAATTGTACACATCAACACAACATAAGGTCGACGGAGTCACCTAGTGCAG

-- reply
20600 fluorescence intensity (a.u.)
3530 fluorescence intensity (a.u.)
3700 fluorescence intensity (a.u.)

Look up binding signal for the entries below, preserving their order.
1. TGGTGATATCAATAGGATTGGAAGAGATTTGTCAGCCTATCGGAGTCACCTAGTGCAG
2. GATCGTACATGTTCACATAAACACCCACGACACTACCCTACGGAGTCACCTAGTGCAG
3. AGTGTCAGTACACACACTAGCTTCTCTCACCGGCTCTCCGCGGAGTCACCTAGTGCAG
4. CATAGTTGACTTCCAAGGCAAGACAGATGAGATATGCATTCGGAGTCACCTAGTGCAG
5. TGTTTGTCGTGACTTAGCTTAGTTGTTGCTGTTGTTGAGCCGGAGTCACCTAGTGCAG
6. GGAAGGAGACTGCTTGGTCACTAATTTAATCTGCTACTACCGGAGTCACCTAGTGCAG
7. TCGGCGGTCGTGGAGGTGGTGGCAGGCGGTCGTGGCGGAGCGGAGTCACCTAGTGCAG
8. GTGTGGTTTTGCTGATGTGGCGCTGACGTGGCGATATTGACGGAGTCACCTAGTGCAG

-- reply
3450 fluorescence intensity (a.u.)
18400 fluorescence intensity (a.u.)
3210 fluorescence intensity (a.u.)
45500 fluorescence intensity (a.u.)
3400 fluorescence intensity (a.u.)
3140 fluorescence intensity (a.u.)
3990 fluorescence intensity (a.u.)
48500 fluorescence intensity (a.u.)

====

# targetOrSystem: OsSMF1 (Oryza sativa, UniProt Q6ZLB0 1-436)
# Sequence: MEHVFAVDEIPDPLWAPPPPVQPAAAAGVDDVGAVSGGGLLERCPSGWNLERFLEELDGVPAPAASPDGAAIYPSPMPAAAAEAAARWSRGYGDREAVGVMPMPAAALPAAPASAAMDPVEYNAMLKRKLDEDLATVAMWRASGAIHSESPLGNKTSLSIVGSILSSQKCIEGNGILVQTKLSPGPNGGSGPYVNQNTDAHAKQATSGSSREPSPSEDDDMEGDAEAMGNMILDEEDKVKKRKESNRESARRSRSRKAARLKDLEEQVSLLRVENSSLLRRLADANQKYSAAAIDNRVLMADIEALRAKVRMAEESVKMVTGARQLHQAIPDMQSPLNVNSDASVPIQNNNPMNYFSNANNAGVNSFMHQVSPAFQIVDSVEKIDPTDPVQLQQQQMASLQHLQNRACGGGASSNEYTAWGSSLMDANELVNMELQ
# assayName: protein-binding microarray (RPBM); PBS, 2% BSA, 51.3 ng/ul salmon testes DNA, 50 uM zinc acetate, 200 nM TF, 25 C, 1 h; high values mean tight binding
# testParameters: protein: recombinant; tags: N-terminal polyhistidine and DsRed monomer fusion (pET32a); chain copies: 2; label: CyDye5-dUTP incorporated in the synthesized complementary strand; 3' TTTTT single-stranded linker to array surface; dsDNA, one strand shown
Whole data set: some 39,000 sequences, median “fluorescence intensity (a.u.)” near 4,300, cut for the highest 2% near 39,000. For the sample, the highest values were picked, then their nearest neighbours and some sequences at random.
measuredParameter: binding signal

sequence CATTATACTGTTCATAAACATGAATATCACAACCTGTTCTCGGAGTCACCTAGTGCAG , binding signal observed: 21100 fluorescence intensity (a.u.)

Look up binding signal for the entries below, preserving their order.
1. GTGGGCTTAGACGGCCCAGTCATGACCCTTTCATTTCGTGCGGAGTCACCTAGTGCAG
2. GGACACCCGCTCCGCGTCGCGCGCACGCTAGAAGAACTCCCGGAGTCACCTAGTGCAG
3. TATATTCGTGTCATTTAGATACCATACCACATCCTGCTACCGGAGTCACCTAGTGCAG
4. ACGGGCACGACGACCGTCGTGCTCACGGCCGCCGACGTCGCGGAGTCACCTAGTGCAG
5. AACAAATATCGTTCCTCGGTGTCGTCATCGTGTTTGGATCCGGAGTCACCTAGTGCAG

-- reply
["3440 fluorescence intensity (a.u.)", "3140 fluorescence intensity (a.u.)", "3240 fluorescence intensity (a.u.)", "4140 fluorescence intensity (a.u.)", "6670 fluorescence intensity (a.u.)"]

Look up binding signal for the entries below, preserving their order.
1. TTGCATCAGGCCCTCTTCAATGATTTAAACAAACAATGGACGGAGTCACCTAGTGCAG
2. TTACAAACAACGCCTTGCATGATTGCATCATCGCCCTAAACGGAGTCACCTAGTGCAG
3. ATTTGGGATGTCTTTATCTCATCCAATTAATCCACGGATACGGAGTCACCTAGTGCAG
4. CAACACCCGTCCGCCAGAGAAGACCATCGTGACGCCACTCCGGAGTCACCTAGTGCAG

-- reply
1. 52300 fluorescence intensity (a.u.)
2. 4300 fluorescence intensity (a.u.)
3. 49200 fluorescence intensity (a.u.)
4. 4880 fluorescence intensity (a.u.)

Look up binding signal for the entries below, preserving their order.
1. CATCACACCCACTTGTCCGCACACAAGAAGAGACCAGCTACGGAGTCACCTAGTGCAG
2. AAGTCGTTCACTCGGCAACGTGTCATCCGGATAGACGTTGCGGAGTCACCTAGTGCAG
3. TTTGCCCATTTTATTCCCTTGCGTCATCCATTTACTGCTTCGGAGTCACCTAGTGCAG
4. TTGTGACTTGATTTATCATCAAATGTTCTTTAAACATGACCGGAGTCACCTAGTGCAG
5. TGATGTTCTTACTGGTGGTGCTGATGACAATACTGAACAGCGGAGTCACCTAGTGCAG
6. CGGCTCCGCCGCACTTGCTCGGCCGTCCACGCCGGCACGGCGGAGTCACCTAGTGCAG

-- reply
1: 50600 fluorescence intensity (a.u.); 2: 6700 fluorescence intensity (a.u.); 3: 13800 fluorescence intensity (a.u.); 4: 3540 fluorescence intensity (a.u.); 5: 3840 fluorescence intensity (a.u.); 6: 3640 fluorescence intensity (a.u.)

Look up binding signal for the entries below, preserving their order.
1. TTAGTGCATGCTGCTAACTAAATACACGTAGCTTGTTGATCGGAGTCACCTAGTGCAG
2. GGGCTTGCCCATTACGCGTTGCTATAGACGCCCTTTCATTCGGAGTCACCTAGTGCAG
3. CGAAGTCGTGCTGCGCTCCGACTCAGCTGCATCGTCACTCCGGAGTCACCTAGTGCAG

-- reply
3310 fluorescence intensity (a.u.)
41600 fluorescence intensity (a.u.)
5960 fluorescence intensity (a.u.)
